System: human MDA-MB-231 breast tumor cells
Protocol Description: Growth assay (Cell Titer Glo)
Type: cell-based
Measurement Parameters: MDA-MB-231 breast; 72 h; Tables 3-5; read-out: IC50 value, μM, growth
Reported IC50 is given for each of the following molecules.
Write the value in µM as a bare number.

{"columns": ["Molecule", "IC50 (µM)"],
 "data": [
  ["COC(=O)C1Cc2c([nH]c3ccccc23)C(c2c(Cl)cccc2Cl)N1C(=O)CCl (centres unmarked) [Compound 2r]", 0.44]
]}

Please look at the following molecule next.
input: Test system human MDA-MB-231 breast tumor cells; read-out IC50; what value for COC(=O)C1Cc2c([nH]c3ccccc23)C(c2c(Cl)cccc2Cl)N1C(=O)CCl (centres unmarked) [Compound 2q] ?
output: 0.04

====

Test system: ZR75-1
Protocol Description: Growth assay (Cell Titer Glo)
Assay type: cell-based
Measurement Parameters: Homo sapiens, ZR-75-1; ZR75-1 breast; 72 h
Result Type: IC50 (µM)
Write the value in µM as a bare number.

The examples below pair each entry with its known result.
{"columns": ["Molecule", "Result Type", "Units Symbol", "Value Reported"],
 "data": [
  ["COC(=O)[C@@H]1Cc2c([nH]c3ccccc23)[C@H](c2cc(OC)ccc2OC)N1C(=O)CCl", "IC50", "µM", 4.13],
  ["COC(=O)[C@H]1Cc2c([nH]c3ccccc23)[C@@H](c2ccccc2Br)N1C(=O)CCl", "IC50", "µM", 3.52],
  ["COC(=O)C1Cc2c([nH]c3ccccc23)C(c2cc(OC)ccc2OC)N1C(=O)CCl (centres unmarked)", "IC50", "µM", 3.95]
]}

input: For "COC(=O)[C@@H]1Cc2c([nH]c3ccccc23)[C@@H](c2ccccc2Br)N1C(=O)CCl" , what is its reported IC50?
output: 3.61

input: For "COC(=O)[C@@H]1Cc2c([nH]c3ccccc23)[C@H](c2ccccc2Br)N1C(=O)CCl" , what is its reported IC50?
output: 1.1

input: For "COC(=O)[C@H]1Cc2c([nH]c3ccccc23)[C@@H](c2cc(OC)ccc2OC)N1C(=O)CCl" , what is its reported IC50?
output: 5.7

input: For "COC(=O)[C@H]1Cc2c([nH]c3ccccc23)[C@H](c2cc(OC)ccc2OC)N1C(=O)CCl" , what is its reported IC50?
output: 1.2

input: For "COC(=O)[C@H]1Cc2c([nH]c3ccccc23)[C@H](c2ccccc2Br)N1C(=O)CCl" , what is its reported IC50?
output: 1.1

====

Tested on: HL-60(TB)
Protocol Description: Growth assay (Cell Titer Glo)
Type: cell-based
Measurement Parameters: Homo sapiens, hematopoietic
Reported pIC50 is given for each of the following compounds.
Recall that pIC50 is obtained by taking minus log10 of the concentration measured in molar.

{"columns": ["Compound", "Result Type", "Value Reported"],
 "data": [
  ["COC(=O)[C@H]1Cc2c([nH]c3ccccc23)[C@H](c2ccc(Cl)cc2Cl)N1C(=O)CCl [Compound 2j]", "pIC50", 7.40]
]}

Please look at the following compound next.
input: For COC(=O)[C@H]1Cc2c([nH]c3ccccc23)[C@H](c2cc(OC)ccc2OC)N1C(=O)CCl [Compound 2f] , what is its reported pIC50?
output: 7.77

Cited source for all entries: patent US9169247B2
